Taken from patent US20260116991A1.

Target: monkey GPC3-His protein (monkey)
Test: ELISA, monkey GPC3-His coated; antibody 0.02 nM
Categories are defined by ranges of OD450 nm, namely low bin (below 0.08), mid bin (0.08 to below 0.6), high bin (0.6 or more)

Answered examples (3):
| binder | class |
| --- | --- |
| hAb005LH1L1a (antibody, human IgG1, V domains shown) VH: EVQLVQSGAEVKKPGASVKVSCKASGYTFTDYEMHWVRQAPGQGLEWMGAIDPETGNTAYIQKFKGRVTMTTDKSTSTAYMELRSLRSDDTAVYYCTRFYSYSHWGQGTTVTVSS VL: DIVMTQTPLSLPVTPGEPASISCRSSQSLVHSDGNTYLHWYLQKPGQSPQLLIYKVSNRFSGVPDRFSGSGSGTDFTLKISRVEAEDVGVYYCSQNTHVPPTFGGGTKVEIK | low bin |
| hAb007LH3L1b (antibody, human IgG1, V domains shown) VH: EVQLVQSGAEVKKPGSSVKVSCKASGYTFTDYEMHWVRQAPGQGLEWMGTIDPETGNTAYNQKFKGRVTLTADKSTSTAYMELSSLRSEDTAVYYCTRPYSLTYWGQGTLVTVSS VL: DIVMTQTPLSLPVTPGEPASISCRSSQSFVHSNRDTYLQWYLQKPGQSPQLLIYKVSNRFSGVPDRFSGSGSGTDFTLKISRVEAEDVGVYYCFQGSHVPYTFGQGTKLEIK | mid bin |
| hAb003LH1L1 (antibody, human IgG1, V domains shown) VH: EVQLVQSGAEVKKPGSSVKVSCKASGYTFSDYEMHWVRQAPGQGLEWMGTIDPETGNTAYTQKFMDRVTITADKSTSTAYMELSSLRSEDTAVYYCTRGYSFTYWGQGTLVTVSS VL: DIVMTQTPLSLPVTPGEPASISCRSSQNIVHSNGNTYLQWYLQKPGQSPQLLIFKVSNRFSGVPDRFSGSGSGTDFTLKISRVEAEDVGVYYCFQGSHVPFTFGQGTKLEIK | high bin |

(Q) Any idea which band hAb007LH3L1a (antibody, human IgG1, V domains shown) VH: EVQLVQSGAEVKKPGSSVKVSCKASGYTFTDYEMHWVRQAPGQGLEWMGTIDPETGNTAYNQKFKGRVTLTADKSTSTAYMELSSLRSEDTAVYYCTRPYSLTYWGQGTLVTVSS VL: DIVMTQTPLSLPVTPGEPASISCRSSQSFVHSDGDTYLQWYLQKPGQSPQLLIYKVSNRFSGVPDRFSGSGSGTDFTLKISRVEAEDVGVYYCFQGSHVPYTFGQGTKLEIK is in?
(A) mid bin

(Q) Any idea which band hAb006LH1L1b (antibody, human IgG1, V domains shown) VH: EVQLVQSGAEVKKPGSSVKVSCKASGYTFSDYEIHWVRQAPGQGLEWMGAIDPKTGNTAYNQKFMGRVTITADKSTSTAYMELSSLRSEDTAVYYCTRYFSFAYWGQGTLVTVSS VL: DIVMTQTPLSLPVTPGEPASISCRSSQTFVHSNANTYLQWYLQKPGQSPQLLIYKVSNRFSGVPDRFSGSGSGTDFTLKISRVEAEDVGVYYCFQGSHVPYTFGQGTKLEIK is in?
(A) high bin

(Q) Any idea which band hAb007LH1L1b (antibody, human IgG1, V domains shown) VH: EVQLVQSGAEVKKPGSSVKVSCKASGYTFSDYEMHWVRQAPGQGLEWMGTIDPETGNTAYNQKFKGRVTITADKSTSTAYMELSSLRSEDTAVYYCTRPYSLTYWGQGTLVTVSS VL: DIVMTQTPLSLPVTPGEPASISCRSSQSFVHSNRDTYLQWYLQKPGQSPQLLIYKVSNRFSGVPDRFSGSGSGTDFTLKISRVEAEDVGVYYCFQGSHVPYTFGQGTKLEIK is in?
(A) mid bin

(Q) Any idea which band hAb005LH3L1a (antibody, human IgG1, V domains shown) VH: EVQLVQSGAEVKKPGASVKVSCKASGYTFTDYEMHWVRQAPGQGLEWIGAIDPETGNTAYIQKFKGRATLTTDKSTSTAYMELRSLRSDDTAVYYCTRFYSYSHWGQGTTVTVSS VL: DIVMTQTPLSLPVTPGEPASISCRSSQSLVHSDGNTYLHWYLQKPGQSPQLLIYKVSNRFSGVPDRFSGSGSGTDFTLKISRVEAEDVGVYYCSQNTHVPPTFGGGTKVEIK is in?
(A) low bin

(Q) Any idea which band hAb006LH2L1a (antibody, human IgG1, V domains shown) VH: EVQLVQSGAEVKKPGSSVKVSCKASGYTFTDYEIHWVRQAPGQGLEWMGAIDPKTGNTAYNQKFMGRVTITADKSTSTAYMELSSLRSEDTAVYYCTRYFSFAYWGQGTLVTVSS VL: DIVMTQTPLSLPVTPGEPASISCRSSQTFVHSDGNTYLQWYLQKPGQSPQLLIYKVSNRFSGVPDRFSGSGSGTDFTLKISRVEAEDVGVYYCFQGSHVPYTFGQGTKLEIK is in?
(A) low bin

(Q) Any idea which band hAb007LH2L1 (antibody, human IgG1, V domains shown) VH: EVQLVQSGAEVKKPGSSVKVSCKASGYTFTDYEMHWVRQAPGQGLEWMGTIDPETGNTAYNQKFKGRVTITADKSTSTAYMELSSLRSEDTAVYYCTRPYSLTYWGQGTLVTVSS VL: DIVMTQTPLSLPVTPGEPASISCRSSQSFVHSNGDTYLQWYLQKPGQSPQLLIYKVSNRFSGVPDRFSGSGSGTDFTLKISRVEAEDVGVYYCFQGSHVPYTFGQGTKLEIK is in?
(A) high bin
